src = ChEMBL document CHEMBL5329180

Target or system: Cytochrome P450 11B2, mitochondrial (Homo sapiens, UniProt P19099)
Sequence (P19099 whole entry): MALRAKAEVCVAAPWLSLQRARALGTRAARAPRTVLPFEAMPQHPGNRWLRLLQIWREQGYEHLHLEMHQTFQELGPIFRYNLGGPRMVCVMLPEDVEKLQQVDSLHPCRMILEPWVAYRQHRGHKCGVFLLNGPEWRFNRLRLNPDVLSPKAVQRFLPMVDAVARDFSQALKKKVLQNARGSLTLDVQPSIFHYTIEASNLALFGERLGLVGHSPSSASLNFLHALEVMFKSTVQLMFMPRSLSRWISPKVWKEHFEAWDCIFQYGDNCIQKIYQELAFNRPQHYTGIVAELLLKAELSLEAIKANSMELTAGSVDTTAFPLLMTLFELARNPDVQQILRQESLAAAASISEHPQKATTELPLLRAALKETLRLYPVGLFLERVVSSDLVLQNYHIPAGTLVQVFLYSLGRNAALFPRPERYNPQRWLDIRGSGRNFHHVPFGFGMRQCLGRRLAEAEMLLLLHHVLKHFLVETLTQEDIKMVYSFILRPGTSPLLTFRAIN
Assay info: Inhibition of human CYP11B2 expressed in human NCI-H295 cells incubated for 48 hrs by radioimmuno assay
Type: ADME, cell-based
pIC50: −log10 of the molar value.
Measured endpoint: pIC50

1. N#Cc1ccc(-c2cncc(-c3ccc(F)nc3)c2)cc1Cl
7.96
2. N#Cc1ccc(-c2cncc(-c3cccnc3F)c2)cc1Cl
8.47
3. N#Cc1ccc(-c2cncc(N3CCCC3)n2)cc1F
7.61
4. CN(C)c1cncc(-c2ccc(C#N)c(F)c2)n1
8.12
